These measurements were taken from PubChem BioAssay (NCI).

Test system: CAKI-1 renal
Assay: NCI tumour cell line growth inhibition, 48 h

| structure.smiles.string | target.desc | relation.operator | TGI [µM] |
| --- | --- | --- | --- |
| COc1cc(S(=O)(=O)Nc2nc(-c3ccc(N=Cc4ccccc4O)cc3)cs2)ccc1Cl | CAKI-1 renal | > | 100 |
| O=c1c(-c2ccccc2)c(SCCCN2CCCCC2)n(-c2ccccc2)c(=S)n1-c1ccccc1 | CAKI-1 renal | = | 38.7 |
| CC1(C)CC2=NO[Se]3=C2C(=NO3)C1 | CAKI-1 renal | = | 11.4 |
| C(=C\c1cc[n+](CCc2ccccc2)cc1)/c1ccccc1 | CAKI-1 renal | = | 86.1 |
| O=C(/C=C(\[O-])c1ccccc1)CCCCCCC(=O)/C=C(\[O-])c1ccccc1.O=C(/C=C(\[O-])c1ccccc1)CCCCCCC(=O)/C=C(\[O-])c1ccccc1.O=C(/C=C(\[O-])c1ccccc1)CCCCCCC(=O)/C=C(\[O-])c1ccccc1.[Y+3].[Y+3] | CAKI-1 renal | > | 50 |
